- SYSTEM TESTED: Tyrosine-protein kinase BTK (Homo sapiens, UniProt Q06187)
- Sequence (Q06187 whole entry): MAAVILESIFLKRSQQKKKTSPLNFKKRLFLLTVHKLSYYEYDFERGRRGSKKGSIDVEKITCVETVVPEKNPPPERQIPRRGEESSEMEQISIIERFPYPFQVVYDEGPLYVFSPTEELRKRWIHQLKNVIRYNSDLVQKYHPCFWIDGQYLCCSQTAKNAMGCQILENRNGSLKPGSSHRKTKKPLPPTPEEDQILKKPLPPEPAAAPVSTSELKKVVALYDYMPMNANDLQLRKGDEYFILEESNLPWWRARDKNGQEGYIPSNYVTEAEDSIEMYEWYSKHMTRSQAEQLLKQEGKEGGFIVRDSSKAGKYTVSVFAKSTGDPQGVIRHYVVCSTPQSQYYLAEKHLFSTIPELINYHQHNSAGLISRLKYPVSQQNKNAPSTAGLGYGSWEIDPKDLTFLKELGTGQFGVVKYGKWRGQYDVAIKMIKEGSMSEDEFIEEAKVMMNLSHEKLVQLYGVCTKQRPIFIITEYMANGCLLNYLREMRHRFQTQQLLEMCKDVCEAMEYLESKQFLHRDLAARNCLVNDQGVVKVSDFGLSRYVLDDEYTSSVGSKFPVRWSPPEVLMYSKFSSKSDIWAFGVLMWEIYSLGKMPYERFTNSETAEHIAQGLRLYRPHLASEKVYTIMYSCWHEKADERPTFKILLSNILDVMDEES
- ASSAY REMARKS: Inhibition of BTK (unknown origin)
QUANTITY KIND: IC50 (nM)

// below: answered molecules
{"columns": ["MOLECULE", "QUANTITY KIND", "MEASURED VALUE"],
 "data": [
  ["Cc1cc(-c2ccnc(Nc3cnn(C)c3)n2)ccc1CN1CCN(CC(C)C)CC1=O", "IC50", 3],
  ["Cc1cc(-c2ccnc(Nc3cnn(C)c3)n2)ccc1CN1CCN(CC(C)(C)C)CC1=O", "IC50", 1],
  ["C=CC(=O)N(C)CCOc1c(-c2ccc(CN3CCN(CC(C)C)CC3=O)c(C)c2)ccnc1N", "IC50", 0.69],
  ["Cc1cc(-c2ccnc(Nc3cnn(C4CN(C)C4)c3)n2)ccc1CN1CCN(CC(C)C)CC1=O", "IC50", 7],
  ["C=CC(=O)N(C)CCOc1cnccc1-c1ccc(CN2CCN(CC)CC2=O)c(C)c1", "IC50", 32]
]}

[A] Cc1cc(-c2ccnc(Nc3cnn(C)c3)n2)ccc1CN1CCN(CC(C)(C)C#N)CC1=O
[B] CC(C)CN1CCN(Cc2ccc(-c3ccnc(Nc4cnn(CCO)c4)n3)cc2C(F)(F)F)C(=O)C1
[C] CC(C)CN1CCN(Cc2ccc(-c3ccnc(Nc4cnn(CCO)c4)n3)cc2Cl)C(=O)C1
[D] Cc1cc(-c2ccnc(Nc3cnn(C)c3)n2)ccc1CN1CCN(C(C)(C)C)CC1=O
INPUT: Exam item: list the entries in increasing order of IC50. I would appreciate it if you listed the labels in the requested order.
OUTPUT: B, C, D, A

====

- SYSTEM TESTED: Cytochrome P450 2D6 (Homo sapiens, UniProt P10635)
- Sequence (P10635 whole entry): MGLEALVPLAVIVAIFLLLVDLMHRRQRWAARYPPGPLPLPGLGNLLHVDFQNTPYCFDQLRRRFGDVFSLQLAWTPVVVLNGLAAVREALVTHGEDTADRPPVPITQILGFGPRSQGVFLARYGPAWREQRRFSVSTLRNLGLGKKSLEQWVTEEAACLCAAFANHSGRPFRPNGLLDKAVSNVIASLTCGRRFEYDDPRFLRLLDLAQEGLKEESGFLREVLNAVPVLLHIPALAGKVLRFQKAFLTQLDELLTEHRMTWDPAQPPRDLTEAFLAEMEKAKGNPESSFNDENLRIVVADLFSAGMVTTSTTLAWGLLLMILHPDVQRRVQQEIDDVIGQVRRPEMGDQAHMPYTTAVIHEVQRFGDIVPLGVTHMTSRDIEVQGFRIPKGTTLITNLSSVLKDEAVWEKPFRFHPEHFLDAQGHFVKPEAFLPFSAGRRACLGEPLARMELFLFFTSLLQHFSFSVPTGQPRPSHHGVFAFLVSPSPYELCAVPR
pIC50: −log10 of the molar value.
QUANTITY KIND: pIC50

Item `C=CC(=O)N(C)CCOc1c(N)ncnc1-c1ccc(CN2CCN(CC(C)C)CC2=O)c(C)c1` was tested on Cytochrome P450 2D6 (Homo sapiens, UniProt P10635); the reported pIC50 is < 5.00

====

- ASSAY REMARKS: Metabolic stability in human liver microsomes assessed as intrinsic clearance
- Format: ADME, Microsome
- TEST CONDITIONS: read-out: CLH
QUANTITY KIND: CLint scaled (mL/min/kg)

// below: answered compounds
{"columns": ["COMPOUND", "OUTPUT UNIT", "CLint scaled"],
 "data": [
  ["C=CC(=O)N(C)CCOc1cncnc1-c1ccc(CN2CCN(C3CCOC3)CC2=O)c(F)c1 (stereo not given)", "mL/min/kg", 81],
  ["C=CC(=O)N(C)CCOc1c(N)ncnc1-c1ccc(CN2CCN(CC(C)C)CC2=O)c(C)c1", "mL/min/kg", 66],
  ["C=CC(=O)N(C)CCOc1cnccc1-c1ccc(CN2CCN(CC(C)(C)C)CC2=O)c(C)c1", "mL/min/kg", 809],
  ["C=CC(=O)N(C)CCOc1cncnc1-c1ccc(CN2CCN(CC(C)C)CC2=O)c(C)c1", "mL/min/kg", 444],
  ["C=CC(=O)N(C)CCOc1cnccc1-c1ccc(CN2CCN(CC(C)C)CC2=O)c(C)c1", "mL/min/kg", 633],
  ["Cc1cc(-c2ccnc(Nc3cnn(C)c3)n2)ccc1CN1CCN(CC(C)(C)C)CC1=O", "mL/min/kg", 228],
  ["C=CC(=O)N(C)CCOc1cncnc1-c1ccc(CN2CCN(CC3CCC3)CC2=O)c(C)c1", "mL/min/kg", 384],
  ["CC(=O)N(C)CCOc1cncnc1-c1ccc(CN2CCN(CC(C)(C)C)CC2=O)c(C)c1", "mL/min/kg", 530],
  ["C=CC(=O)N(C)CCOc1c(-c2ccc(CN3CCN(CC(C)C)CC3=O)c(C)c2)ccnc1N", "mL/min/kg", 334],
  ["C=CC(=O)N(C)CCOc1cnccc1-c1ccc(CN2CCN(CC)CC2=O)c(C)c1", "mL/min/kg", 113]
]}

[I] C=CC(=O)N(C)CCOc1cncnc1-c1ccc(CN2CCN(CC(C)(C)C)CC2=O)cc1
[II] C=CC(=O)N(C)CCOc1cncnc1-c1ccc(CN2CCN(CC(C)(C)C)CC2=O)c(C)c1
[III] C=CC(=O)N(C)CCOc1cnccc1-c1ccc(CN2CCN(C(C)C)CC2=O)c(C)c1
[IV] C=CC(=O)N(C)CCOc1cnccc1-c1ccc(CN2CCN(CC3CCC3)CC2=O)c(C)c1
[V] C=CC(=O)N(C)CCOc1c(N)ncnc1-c1cc(F)cc(NC(=O)c2ccc(C3CC3)cc2F)c1C [REMIBRUTINIB]
INPUT: List these items ordered by CLint scaled, big to small. I would appreciate it if you listed the labels in the requested order.
OUTPUT: II, IV, I, III, V
